// reported pKi per item
target: c-Met (Homo sapiens, UniProt P08581)
Sequence (P08581 25-1390): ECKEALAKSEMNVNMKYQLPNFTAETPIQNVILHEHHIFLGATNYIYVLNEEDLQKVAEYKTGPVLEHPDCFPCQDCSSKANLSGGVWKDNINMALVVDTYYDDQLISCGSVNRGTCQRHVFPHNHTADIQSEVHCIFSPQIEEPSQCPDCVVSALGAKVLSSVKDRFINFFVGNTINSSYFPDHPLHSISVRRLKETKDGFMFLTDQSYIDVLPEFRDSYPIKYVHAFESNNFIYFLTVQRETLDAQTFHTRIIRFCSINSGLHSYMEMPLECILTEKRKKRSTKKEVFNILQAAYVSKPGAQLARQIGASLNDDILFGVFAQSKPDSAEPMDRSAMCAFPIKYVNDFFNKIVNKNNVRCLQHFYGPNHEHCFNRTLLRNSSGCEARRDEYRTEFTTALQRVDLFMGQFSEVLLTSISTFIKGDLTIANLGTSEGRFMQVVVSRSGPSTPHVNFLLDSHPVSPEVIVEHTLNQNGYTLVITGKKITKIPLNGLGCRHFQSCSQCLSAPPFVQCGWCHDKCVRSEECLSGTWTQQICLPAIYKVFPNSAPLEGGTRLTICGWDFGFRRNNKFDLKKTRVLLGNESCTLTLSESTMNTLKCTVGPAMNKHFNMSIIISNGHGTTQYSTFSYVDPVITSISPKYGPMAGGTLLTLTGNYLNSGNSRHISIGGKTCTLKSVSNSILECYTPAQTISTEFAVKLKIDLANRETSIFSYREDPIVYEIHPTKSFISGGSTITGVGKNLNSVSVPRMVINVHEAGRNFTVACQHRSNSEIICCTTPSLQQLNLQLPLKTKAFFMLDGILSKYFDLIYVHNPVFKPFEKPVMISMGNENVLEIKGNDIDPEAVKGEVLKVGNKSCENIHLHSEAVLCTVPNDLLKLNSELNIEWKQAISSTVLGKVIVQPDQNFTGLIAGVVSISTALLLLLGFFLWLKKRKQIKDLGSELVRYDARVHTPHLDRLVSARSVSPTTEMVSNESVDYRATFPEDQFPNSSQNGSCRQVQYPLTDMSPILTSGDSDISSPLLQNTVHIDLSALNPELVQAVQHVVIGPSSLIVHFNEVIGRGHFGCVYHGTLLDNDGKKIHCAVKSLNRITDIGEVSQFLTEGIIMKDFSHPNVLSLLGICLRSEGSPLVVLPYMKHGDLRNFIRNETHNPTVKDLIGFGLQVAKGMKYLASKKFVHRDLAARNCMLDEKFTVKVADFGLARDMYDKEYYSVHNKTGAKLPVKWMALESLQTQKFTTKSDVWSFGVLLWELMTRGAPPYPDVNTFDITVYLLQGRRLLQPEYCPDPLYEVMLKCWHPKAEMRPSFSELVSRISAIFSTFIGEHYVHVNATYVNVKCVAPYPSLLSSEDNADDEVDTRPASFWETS
pKi: −log10 of the molar value.

Record excerpt, results attached:
                                   compound                       target_of_assay       reading
0  Nc1nn2cc(-c3ccccc3OCc3ccccc3)cnc2c1-c1ccccn1  c-Met (Homo sapiens, UniProt P08581)  5.30 to 6.30
1  Cc1cnc2c(-c3cc(N4CCCC4c4ccc(F)cc4)ncn3)c(N)nn2c1 (stereo not drawn)  c-Met (Homo sapiens, UniProt P08581)        > 6.30
2  Nc1nn2cc(-c3cccc(C(=O)N4CCC[C@H]4CN4CCCC4)n3)cnc2c1-c1ccccn1  c-Met (Homo sapiens, UniProt P08581)        > 6.30
3  Nc1nn2cc(-c3ccncn3)cnc2c1C(=O)NCc1ccc(F)cc1F  c-Met (Homo sapiens, UniProt P08581)  5.30 to 6.30
4  Nc1nn2cc(-c3ccc(N4CCSCC4)nc3)cnc2c1-c1ccccn1  c-Met (Homo sapiens, UniProt P08581)  5.30 to 6.30

Query :: Form field - read-out: pKi; system: c-Met (Homo sapiens, UniProt P08581); submitted item: Nc1nn2cc(-c3ccncc3)cnc2c1-c1ncccc1OCc1ccccc1
Result :: 5.30 to 6.30
